# Tested on: wheat germ agglutinin (Triticum aestivum), Alexa647-labelled
# test description: wheat germ agglutinin binders on compound microarrays, profiling panel, artefact control for SMM control-protein annotation, biochemical, small-molecule microarray, 635/667 nm fluorescence (AID 1140);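 further: score merges 667 nm feature emission with signal to noise over triplicate slides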
# condition info: WGA-A647 binding, 635 nm fluorescence, higher = more signal
composite z-score below 0.1 gives Condition not met; composite z-score at or above it gives Condition met.

The examples below pair each entry with its known result.
molecule	test target	assigned label
CCOC(=O)[C@H](Cc1ccccc1)NC(=O)CCC1CC(OC(=O)NCCc2ccc(F)cc2)CC2(CCCC(COC(=O)NCc3ccccc3)O2)O1 (stereo partly specified)	wheat germ agglutinin (Triticum aestivum), Alexa647-labelled	Condition met
CCCNC(=O)OC[C@H]1O[C@H](c2ccccc2)C=C[C@@H]1Oc1ccc(OC)cc1	wheat germ agglutinin (Triticum aestivum), Alexa647-labelled	Condition not met
CCc1cc2c(nc1CC)CCN(CCC(C)=NO[C@H](C)c1cn([C@@H]3COC[C@H]3O)nn1)C2	wheat germ agglutinin (Triticum aestivum), Alexa647-labelled	Condition met
CCN1C(=O)[C@H]2[C@H]3[C@H](O)[C@H](O)CC(=O)[C@H]3CC[C@H]2C1=O	wheat germ agglutinin (Triticum aestivum), Alexa647-labelled	Condition met
CCCCC#C[C@@H]1C=C[C@H](OC(C)=O)[C@@H](COC(C)=O)O1	wheat germ agglutinin (Triticum aestivum), Alexa647-labelled	Condition met

# input Textbook exercise: given the entry `COc1ccc(COC(=O)NN=C2C[C@@H](O)[C@@H](O)[C@@H]3[C@@H]4C(=O)N(c5cccc(Oc6ccccc6)c5)C(=O)[C@@H]4CC[C@@H]23)cc1` , state whether its composite z-score is greater than or equal to 0.1.
# output Condition met

# input Textbook exercise: given the entry `C=Cc1ccc([C@H]2N[C@H](C(=O)O)CC[C@@H]2C)cc1` , state whether its composite z-score is greater than or equal to 0.1.
# output Condition met

# input Textbook exercise: given the entry `CC(C)CON=C1C[C@@H](O)[C@@H](O)[C@@H]2[C@@H]3C(=O)N(C[C@@H]4CCCO4)C(=O)[C@@H]3CC[C@@H]12` , state whether its composite z-score is greater than or equal to 0.1.
# output Condition met
